# reported IC50; entries follow
Tested on: smooth muscle cells
Test: Inhibition of the proliferation of smooth muscle cells (3H-thymidine incorporation)
Type: cell-based
Conditions: rat aortic smooth muscle cells, stimulated by 10% FCS
The reply should be a number in nM, with the unit left off.

- Compound: "O=C(N[C@H](CO)c1ccccc1)C1CCCCC1c1ccc(Cn2c(C3CC3)nc3cccnc32)cc1 (single isomer, unassigned) [Example 17]"
  IC50, nM: 2

API: the following record is the query input.
Give recorded IC50. O=C(N[C@H](CO)c1ccccc1)C1CCCCC1c1ccc(Cn2c(C3CC3)nc3cccnc32)cc1 (single isomer, unassigned) [Example 16]
410

* * *

Target: Angiotensin II Receptor (Bos taurus)
Construct: Adrenal gland cortices from cattle (AGCs), which have been freshly removed and carefully freed from gland medulla
Sequence (P25104 whole entry): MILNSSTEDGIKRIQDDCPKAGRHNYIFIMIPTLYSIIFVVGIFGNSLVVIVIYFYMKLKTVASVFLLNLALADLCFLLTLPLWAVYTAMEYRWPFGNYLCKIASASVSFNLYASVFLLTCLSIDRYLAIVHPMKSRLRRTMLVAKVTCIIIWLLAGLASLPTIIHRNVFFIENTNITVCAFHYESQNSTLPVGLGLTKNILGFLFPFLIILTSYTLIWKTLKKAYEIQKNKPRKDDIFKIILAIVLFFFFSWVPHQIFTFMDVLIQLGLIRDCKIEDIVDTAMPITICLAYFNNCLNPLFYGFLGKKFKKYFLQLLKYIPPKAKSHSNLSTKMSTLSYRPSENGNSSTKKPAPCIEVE
Test: Interaction with the angiotensin II receptor in membrane fractions of the adrenal gland cortex (bovine), 3H-angiotensin II binding
Conditions: 3H-angiotensin II (3-5 nM), bovine adrenal gland cortex membranes, 60 min at room temperature, pH 7.2
Value kind: pKi
Quick note: pKi values are minus log10 of concentrations in mol/L.

- Molecule: "CC(C)(C)OC(=O)[C@@H]1CCCC[C@H]1c1ccc(Cn2c(-c3ccccc3)nc3cccnc32)cc1 (relative stereo) [Example 9]"
  pKi: 7.33

API: the following record is the query input.
Give recorded pKi. CCCCc1nc2ccccc2n1Cc1ccc(C2CCCCC2C(=O)N[C@H](CO)c2ccccc2)cc1 (some centres unmarked) [Example 30]
7.72
